Tgt: E. feacalis DltA (Enterococcus faecalis, UniProt Q830N0)
Sequence (Q830N0 1-506): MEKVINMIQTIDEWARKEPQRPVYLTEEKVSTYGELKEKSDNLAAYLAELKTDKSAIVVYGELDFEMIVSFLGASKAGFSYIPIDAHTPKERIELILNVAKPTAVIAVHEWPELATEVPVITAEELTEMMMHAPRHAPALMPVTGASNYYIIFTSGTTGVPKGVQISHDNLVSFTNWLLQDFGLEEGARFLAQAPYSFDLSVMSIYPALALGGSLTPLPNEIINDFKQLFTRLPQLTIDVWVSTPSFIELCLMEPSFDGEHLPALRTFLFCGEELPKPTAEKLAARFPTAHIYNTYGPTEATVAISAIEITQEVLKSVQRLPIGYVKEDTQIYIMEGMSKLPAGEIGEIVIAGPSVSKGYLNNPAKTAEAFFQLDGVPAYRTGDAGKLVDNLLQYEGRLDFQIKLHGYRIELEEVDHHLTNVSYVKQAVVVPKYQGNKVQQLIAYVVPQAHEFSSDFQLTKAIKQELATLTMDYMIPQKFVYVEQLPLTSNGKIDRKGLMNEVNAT
Assay Details: in vitro DltA activity assay (luminescence), E. faecalis DltA
Type: biochemical
Stated Conditions: recombinant DltA, 30 min pre-incubation, 0.5 mM D-Alanine, 0.5-5 μM ATP; read-out: E. feacalis DltA IC50
Here, each record is paired with measured IC50 data.
Only the number, expressed in nM, is required.

Task: What value of IC50 has been recorded for this entry: CN(CCO)c1cc(-c2ccc3c(c2)ncn3C2CCCCC2)c2nc[nH]c2c1C(N)=O [Example 117]
Result: 16

Task: Next compound up: CN(C)CCN(C)c1cc(-c2cnc3c(c2)CCCO3)c2nc[nH]c2c1C(N)=O [Example 144]
Result: 17

Continue with the compound presented below.
Task: IC50 for CCn1cnc2cc(-c3cc(N(C)CCN(C)C)c(C(N)=O)c4[nH]cnc34)cc(OC)c21 [Example 152] ?
Result: 16

----------
Tgt: S. aureus DltA (Staphylococcus aureus (strain NCTC 8325 / PS 47), UniProt Q2FZW6)
Assay Details: in vitro DltA activity assay (luminescence), S. aureus DltA
Assay type: biochemical
Stated Conditions: recombinant DltA, 30 min pre-incubation, 0.5 mM D-Alanine, 0.5-5 μM ATP; read-out: S. aureus DltA IC50
Each item that follows carries a reported pIC50.
# pIC50 = -log10(concentration in molar units)

Task: Given the compound COCCn1cnc2cc(-c3cc(N(C)CCN(C)C)c(C(N)=O)c4[nH]cnc34)ccc21 , what is its reported pIC50?
Result: 7.77

Task: Request: CN(C)CCCN(C)c1cc(-c2ccc3c(c2)ncn3C2CCCCC2)c2nc[nH]c2c1C(N)=O
Result: 7.23

Task: Ok, now NC(=O)c1c(N2CCC(CO)(CO)CC2)cc(-c2ccc3c(c2)ncn3C2CCCCC2)c2nc[nH]c12
Result: 7.62

Task: Could you do the same for NC(=O)c1c(F)cc(-c2ccc3c(c2)ncn3C2CCCCC2)c2nc[nH]c12 , please?
Result: 7.31

Task: Query CN(C)CCN(C)c1cc(-c2cc3c4c(c2)ncn4CCO3)c2nc[nH]c2c1C(N)=O next
Result: 7.54

----------
Tgt: S. aureus DltA (Staphylococcus aureus (strain NCTC 8325 / PS 47), UniProt Q2FZW6)
Assay Details: in vitro DltA activity assay (luminescence), S. aureus DltA
Format: biochemical
Stated Conditions: recombinant DltA, 30 min pre-incubation, 0.5 mM D-Alanine, 0.5-5 μM ATP; read-out: S. aureus DltA IC50
Endpoint: pIC50
Scale explanation: pIC50 corresponds to minus log10 of a concentration expressed in moles per litre.

A selection of reference data follows.
Task: Fill in: pIC50 of CN(CCO)c1cc(-c2cnc3c(c2)CCCO3)c2nc[nH]c2c1C(N)=O is ___
Result: 6.77

Task: Input OCCC1CCN(c2cc(-c3ccc4c(c3)ncn4C3CCCCC3)c3nc[nH]c3n2)C1 (stereo not shown)
Result: 6.80

Task: Cool, now CN(C)CCN(C)c1cc(-c2cncc(N3CCCC3)c2)c2nc[nH]c2c1C(N)=O
Result: 7.19

Task: Entry CN1CCCC(Oc2cc(-c3cnc4c(c3)CCCO4)c3nc[nH]c3c2C(N)=O)C1 (stereo not shown) please
Result: 6.64

Task: Do the same for CN(C)CCOc1cc(-c2ccc3c(c2)ncn3C2CCCCC2)c2nc[nH]c2c1C#N please
Result: 7.28

Task: Same lookup for c1nc2c(-c3ccc4c(c3)ncn4C3CCCCC3)cc(N3CC4CNCC4C3)cc2[nH]1 (stereo not shown) , please.
Result: 7.10

Next:
Task: Which pIC50 reading was recorded for the molecule CN1CCC[C@@H]1COc1cc(-c2ccc3c(c2)ncn3C2CCCOC2)c2nc[nH]c2c1C(N)=O (stereo partly shown) ?
Result: 9.10

Task: Cool, now O=C(NO)c1c(F)cc(-c2ccc3c(c2)ncn3C2CCCCC2)c2nc[nH]c12
Result: 6.55

Task: Moving on to OCC1(CO)CCN(c2cc(-c3ccc4c(c3)ncn4C3CCCCC3)c3nc[nH]c3c2)CC1
Result: 6.96

Task: Same read-out for CN1CCCC1COc1cc(-c2cnc3c(c2)CCCO3)c2nc[nH]c2c1C(N)=O (stereo not shown) ?
Result: 8.19
